Tested on: Pseudomonas aeruginosa Ps4
Test: ≥ marks a high value that may be exact or a test limit, other limits are often not marked, values filed in µg/mL are converted to µM

compound | MIC
CC[C@H](C)[C@H](NC(=O)[C@H](CC(N)=O)NC(=O)[C@H](CCCN=C(N)N)NC(=O)[C@@H](NC(=O)[C@H](Cc1c[nH]c2ccccc12)NC(=O)[C@@H](N)Cc1ccccc1)[C@@H](C)CC)C(=O)N[C@@H](CCCN=C(N)N)C(=O)N[C@@H](CCCCN)C(=O)N[C@H](C(=O)N[C@@H](CCCN=C(N)N)C(N)=O)C(C)C [FWIRNIRKVR] | ≥ 180 µM

====

In this section, each of the molecules is paired with its reported MIC.
Tested on: Escherichia coli B
Experiment: ≥ marks a high value that may be exact or a test limit, other limits are often not marked, values filed in µg/mL are converted to µM
readout.type: MIC (µM)

molecular.string | units.symbol | value.qualifier | reading
CC[C@H](C)[C@H](NC(=O)CNC(=O)[C@H](C)NC(=O)[C@H](Cc1c[nH]c2ccccc12)NC(=O)[C@H](CC(C)C)NC(=O)[C@@H](N)CC(N)=O)C(=O)N[C@@H](CC(C)C)C(=O)N[C@@H](CCCCN)C(=O)N[C@@H](Cc1cnc[nH]1)C(=O)N[C@H](C(=O)N[C@H](C(=O)N[C@@H](CCCCN)C(N)=O)[C@@H](C)CC)[C@@H](C)CC | µM | = | 12.5
CC[C@H](C)[C@H](NC(=O)[C@H](Cc1cnc[nH]1)NC(=O)[C@H](CCCCN)NC(=O)[C@H](CC(C)C)NC(=O)[C@H](CCCCN)NC(=O)[C@H](CO)NC(=O)[C@H](CCSC)NC(=O)[C@H](Cc1c[nH]c2ccccc12)NC(=O)[C@H](CCCCN)NC(=O)CN)C(=O)N[C@@H](CC(C)C)C(=O)N[C@@H](CCCCN)C(N)=O | µM | ≥ | 45
CC[C@H](C)[C@H](NC(=O)CN)C(=O)N[C@@H](CCSC)C(=O)N[C@@H](CO)C(=O)N[C@@H](CO)C(=O)N[C@@H](CC(C)C)C(=O)N[C@@H](CCSC)C(=O)N[C@@H](CCCCN)C(=O)N[C@@H](CCCCN)C(=O)N[C@@H](CC(C)C)C(=O)N[C@@H](CCCCN)C(=O)N[C@@H](C)C(=O)N[C@@H](Cc1cnc[nH]1)C(=O)N[C@H](C(=O)N[C@@H](C)C(=O)N[C@@H](CCCCN)C(N)=O)[C@@H](C)CC | µM | = | 30
CC[C@H](C)[C@H](NC(=O)[C@H](Cc1cnc[nH]1)NC(=O)[C@H](CCCCN)NC(=O)[C@H](CC(C)C)NC(=O)[C@H](CC(C)C)NC(=O)[C@H](CO)NC(=O)[C@H](CC(C)C)NC(=O)[C@H](Cc1c[nH]c2ccccc12)NC(=O)[C@H](CCCCN)NC(=O)CN)C(=O)N[C@@H](CC(C)C)C(=O)N[C@@H](CCCCN)C(N)=O | µM | = | 1.8

====

System: Staphylococcus epidermidis ATCC 12228
Binarize MIC at 4 µM; below is Criterion met, at or above is Criterion not met.

molecular.string | classification
CC(C)C[C@H](NC(=O)CN)C(=O)N[C@@H](CC(C)C)C(=O)N[C@@H](CCCCN)C(=O)N[C@@H](CCCN=C(N)N)C(=O)N[C@@H](CC(C)C)C(=O)N[C@@H](CCCCN)C(=O)N[C@H](C(=O)N[C@@H](CC(C)C)C(=O)N[C@@H](C)C(N)=O)[C@@H](C)O | Criterion not met
CC[C@H](C)[C@H](NC(=O)[C@H](CCCCN)NC(=O)[C@H](CCCCN)NC(=O)[C@H](C)NC(=O)[C@H](CC(C)C)NC(=O)[C@H](CCCCN)NC(=O)[C@H](CCCCN)NC(=O)[C@H](CC(C)C)NC(=O)[C@H](CCCN=C(N)N)NC(=O)[C@H](CCCCN)NC(=O)[C@H](C)N)C(=O)N[C@@H](Cc1c[nH]c2ccccc12)C(=O)N[C@@H](CCCCN)C(=O)N[C@@H](Cc1c[nH]c2ccccc12)C(=O)N[C@@H](CCCCN)C(N)=O | Criterion met
NC(=O)[C@H](Cc1ccccc1)NC(=O)[C@H](CCCN=C(N)N)NC(=O)[C@H](Cc1c[nH]c2ccccc12)NC(=O)[C@H](CCCN=C(N)N)NC(=O)[C@H](Cc1c[nH]c2ccccc12)NC(=O)[C@H](Cc1c[nH]c2ccccc12)NC(=O)[C@H](Cc1c[nH]c2ccccc12)NC(=O)[C@H](CCCN=C(N)N)NC(=O)[C@H](Cc1c[nH]c2ccccc12)NC(=O)[C@@H](N)CCCN=C(N)N | Criterion met
NCCCC[C@H](NC(=O)CNC(=O)[C@H](CC(N)=O)NC(=O)[C@H](CCC(=O)O)NC(=O)[C@H](Cc1c[nH]c2ccccc12)NC(=O)[C@H](CCCCN)NC(=O)[C@H](Cc1c[nH]c2ccccc12)NC(=O)[C@H](CCCCN)NC(=O)[C@@H](N)Cc1c[nH]c2ccccc12)C(=O)N[C@@H](Cc1c[nH]c2ccccc12)C(=O)N[C@@H](CCCCN)C(=O)N[C@@H](Cc1c[nH]c2ccccc12)C(=O)N[C@@H](CCC(N)=O)C(=O)N[C@@H](Cc1c[nH]c2ccccc12)C(=O)O | Criterion not met
CC(=O)N[C@@H](CC(C)C)C(=O)N[C@@H](Cc1ccccc1)C(=O)N[C@@H](CCCCN)C(=O)N[C@@H](CCCCN)C(=O)N[C@@H](CC(N)=O)C(=O)N[C@@H](CCCCN)C(=O)N[C@@H](CC(C)C)C(=O)N[C@@H](Cc1c[nH]c2ccccc12)C(=O)N[C@@H](Cc1ccccc1)C(=O)N[C@@H](CCCCN)C(=O)N[C@@H](CO)C(=O)N[C@@H](CCCCN)C(=O)N[C@@H](CCCCN)C(=O)N[C@@H](Cc1c[nH]c2ccccc12)C(=O)N[C@@H](CC(C)C)C(N)=O | Criterion not met
CC[C@H](C)[C@H](N)C(=O)N[C@H](C(=O)N[C@@H](CS)C(=O)N[C@@H](CCCN=C(N)N)C(=O)N[C@@H](CCCCN)C(=O)N1CCC[C@H]1C(=O)N[C@H](C(=O)N[C@H](C(=O)N[C@@H](CS)C(=O)N[C@@H](CCCN=C(N)N)C(=O)N[C@@H](CCCCN)C(=O)N1CCC[C@H]1C(=O)N[C@H](C(=O)N[C@H](C(N)=O)[C@@H](C)CC)[C@@H](C)CC)[C@@H](C)CC)[C@@H](C)CC)[C@@H](C)CC | Criterion not met
